Protocol description: Determination of solubility in conventional solvents, visual inspection method
Assay type: physicochemical
Applied conditions: methanol, organic solvent or mixture, thermodynamic from solid; 25° C.; read-out: solubility in methanol
Endpoint: Solubility

Request: For the molecule shown here, Cc1[nH]c(/C=C2\C(=O)Nc3ccc(F)cc32)c(C)c1C(=O)N[C@H]1CCN(C(=O)N(C)C)C1 [crystalline form 1] , give the reported Solubility.
Response: 5000 to 12500 µg/mL

* * *

Protocol description: Pharmacokinetic experiment, oral administration
Assay type: in vivo, Sprague Dawley rats
Applied conditions: female, Sprague Dawley, rat, plasma, po, 10 mg/kg, suspension in 0.5% CMC, female 1, read-out: Cmax
Endpoint: Cmax (ng/mL)
Return type: number; implicit unit ng/mL.

Request: Field request: Cmax | item: Cc1[nH]c(/C=C2\C(=O)Nc3ccc(F)cc32)c(C)c1C(=O)N[C@H]1CCN(C(=O)N(C)C)C1 [crystalline form 2]
Response: 317

* * *

Protocol description: Determination of solubility in conventional solvents, visual inspection method
Format: physicochemical
Applied conditions: acetone, organic solvent or mixture, thermodynamic from solid; 25° C.; read-out: solubility in acetone
Text: If the sample is still not dissolved at a specific concentration, its solubility is expressed as “<specific concentration”;
Endpoint: Solubility

Request: GET /values?readout=Solubility&item= Cc1[nH]c(/C=C2\C(=O)Nc3ccc(F)cc32)c(C)c1C(=O)N[C@H]1CCN(C(=O)N(C)C)C1 [crystalline form 1]
Response: 1000 to 2500 µg/mL

* * *

Measured HPLC Purity %, listed per entry.
Protocol description: Stability of the crystalline forms (HPLC, XRD, DSC)
Assay type: physicochemical
Applied conditions: 0 day (starting sample)
Provide only the numeric value, understood in %.

# example entries with known answers
Cc1[nH]c(/C=C2\C(=O)Nc3ccc(F)cc32)c(C)c1C(=O)N[C@H]1CCN(C(=O)N(C)C)C1 [crystalline form 1]	99.67
Cc1[nH]c(/C=C2\C(=O)Nc3ccc(F)cc32)c(C)c1C(=O)N[C@H]1CCN(C(=O)N(C)C)C1 [crystalline form 3]	99.14
Cc1[nH]c(/C=C2\C(=O)Nc3ccc(F)cc32)c(C)c1C(=O)N[C@H]1CCN(C(=O)N(C)C)C1 [crystalline form 6]	99.09
Cc1[nH]c(/C=C2\C(=O)Nc3ccc(F)cc32)c(C)c1C(=O)N[C@H]1CCN(C(=O)N(C)C)C1 [crystalline form 7]	99.28

Request: Quick one: HPLC Purity % of Cc1[nH]c(/C=C2\C(=O)Nc3ccc(F)cc32)c(C)c1C(=O)N[C@H]1CCN(C(=O)N(C)C)C1 [crystalline form 5] ?
Response: 99.86

Request: Requested read-out: HPLC Purity %. Entry: Cc1[nH]c(/C=C2\C(=O)Nc3ccc(F)cc32)c(C)c1C(=O)N[C@H]1CCN(C(=O)N(C)C)C1 [crystalline form 2]
Response: 97.76

* * *

Protocol description: Determination of solubility in conventional solvents, visual inspection method
Assay type: physicochemical
Applied conditions: tetrahydrofuran, organic solvent or mixture, thermodynamic from solid; 25° C.; read-out: solubility in tetrahydrofuran
Endpoint: Solubility

Request: Recorded Solubility for Cc1[nH]c(/C=C2\C(=O)Nc3ccc(F)cc32)c(C)c1C(=O)N[C@H]1CCN(C(=O)N(C)C)C1 [crystalline form 1] , please?
Response: 1000 to 2500 µg/mL
